Source of measurements: patent US9073881B2

Reported IC50, UniProt:P06730.
Readout type: IC50 (nM)

Take a look at these entries with their results.
>>> print(df.to_string())
                                   compound     system_name  readout_type  unit  test_value
0  O=C(O)c1cc(-c2nc(-c3ccc(OC(F)F)cc3)cs2)ccc1-c1ccccc1[N+](=O)[O-] [Example 3]  UniProt:P06730          IC50    nM        9900
1  O=C(O)c1cc(-c2nc(-c3ccc(Cl)c(Cl)c3)cs2)ccc1-c1ccccc1Cl [Example 153]  UniProt:P06730          IC50    nM        2200

1 = O=C(NCc1ccccc1F)c1ccc(-c2ccc(-c3nc(-c4ccc(Cl)c(Cl)c4)cs3)cc2C(=O)O)cc1 [Example 74]
2 = COc1cccc(CNC(=O)c2ccc(-c3ccc(-c4nc(-c5ccc(Cl)c(Cl)c5)cs4)cc3C(=O)O)cc2)c1 [Example 65]
3 = COc1ncc(-c2ccc(-c3nc(-c4ccc(Cl)c(Cl)c4)cs3)cc2C(=O)O)cn1 [Example 83]
4 = CCOc1ncc(-c2ccc(-c3nc(-c4ccc(Cl)c(Cl)c4)cs3)cc2C(=O)O)cn1 [Example 82]
5 = Cc1cc(C(=O)O)ccc1-c1ccc(-c2nc(-c3ccc(Cl)c(Cl)c3)cs2)cc1C(=O)O [Example 79]
Ask: Arrange the 5 entries by IC50 so the values rise. Record the ranking as a list of labels in the requested order.
Reply: 2, 1, 4, 5, 3
(2: 1300 nM, 1: 2500 nM, 4: 3600 nM, 5: 5400 nM, 3: 14000 nM)

I = O=C(NCc1ccccc1)c1ccc(-c2ccc(-c3nc(-c4ccc(Cl)c(Cl)c4)cs3)cc2C(=O)O)cc1 [Example 76]
II = O=C(O)c1cc(-c2nc(-c3ccc(Cl)c(Cl)c3)cs2)ccc1-c1cnc(O)nc1 [Example 84]
Ask: I'd appreciate it if you could identify which of I and II has the greater IC50. Respond using the label that marks the chosen record.
Reply: I

A = O=C(O)c1cc(-c2nc(-c3cc(Cl)ccc3Cl)cs2)ccc1-c1ccccc1[N+](=O)[O-] [Example 12]
B = CCOc1ccc(-c2ccc(-c3nc(-c4ccc(Cl)c(Cl)c4)cs3)cc2C(=O)O)c(Cl)c1 [Example 89]
Ask: I'd appreciate it if you could identify which of A and B has the greater IC50. Respond using the label that marks the chosen record.
Reply: A
(A: 2900 nM, B: 2000 nM)

====

Reported IC50, Human eIF4E (Homo sapiens (Human)).
Readout type: IC50 (µM)

P = Cc1ccc(Cl)c(-c2ccc(-c3nc(-c4ccc(Cl)c(Cl)c4)cs3)cc2C(=O)O)c1
Q = COc1ccc(-c2csc(-c3ccc(-c4ccccc4[N+](=O)[O-])c(C(=O)O)c3)n2)cc1
Ask: I'd appreciate it if you could identify which of P and Q has the greater IC50. Respond using the label that marks the chosen record.
Reply: Q
(Q: 8.3 µM, P: 1.1 µM)

====

Reported IC50, Human eIF4E (Homo sapiens (Human), UniProt P06730).
Readout type: IC50 (µM)

Take a look at these entries with their results.
>>> print(df.to_string())
                                   compound  test_value
0  O=C(O)c1cc(-c2nc(-c3ccc(Cl)c(Cl)c3)cs2)ccc1-c1cc(C(F)(F)F)ccc1[N+](=O)[O-]           2
1  O=C(O)c1cc(-c2nc(-c3ccc(Cl)c(Cl)c3)cs2)ccc1-c1cc(O)ccc1Cl         3.4
2  CC(=O)c1ccc(-c2ccc(-c3nc(-c4ccc(Cl)c(Cl)c4)cs3)cc2C(=O)O)cc1         3.8
3  N#Cc1cccc(-c2ccc(-c3nc(-c4ccc(Cl)c(Cl)c4)cs3)cc2C(=O)O)c1         3.2

a = O=C(NC1CCOC1)c1ccc(-c2ccc(-c3nc(-c4ccc(Cl)c(Cl)c4)cs3)cc2C(=O)O)cc1 (stereo not shown)
b = NC(=O)c1ccc(Cl)c(-c2ccc(-c3nc(-c4ccc(Cl)c(Cl)c4)cs3)cc2C(=O)O)c1
Ask: Compare reported IC50 values for a and b . Which is lower? Respond using the label that marks the chosen record.
Reply: b
